# credit: ChEMBL document CHEMBL1781968

Listed compounds paired with reported MFC
- System: Aspergillus fumigatus
- assay summary: Antifungal activity against Aspergillus fumigatus ATCC 204305 by NCCLS method
- Format: functional, organism-based
Kindly provide the numeric value in µg/mL only, without the unit symbol.

line notation	MFC / µg/mL
C[n+]1cccc(N(CCCCCC2CCCCC2)c2cccc(Cl)c2)c1.[I-]	20
C[n+]1cccc2c1c1cccc(Cl)c1n2CCCCCC1CCCCC1.[I-]	20
C[n+]1cccc2c1c1cc(Cl)ccc1n2CCCCCC1CCCCC1.[I-]	20

Continue with the next compound.
Measured MFC for this entry C[n+]1cccc(N(CCCCCC2CCCCC2)c2ccc(C(F)(F)F)cc2)c1.[I-] on Aspergillus fumigatus: 5

###

- System: Staphylococcus aureus
- assay summary: Antibacterial activity against methicillin-resistant Staphylococcus aureus ATCC 33591 by NCCLS method
- Type: functional, organism-based
measured property: IC50 (µg/mL)
Value expressed in µg/mL; do not type the unit.

line notation	IC50, µg/mL
COc1ccc2c(c1)c1c(ccc[n+]1C)n2CCCCCC1CCCCC1.[I-]	3.3

Value of measured IC50 for the entry C[n+]1cccc(N(CCCCCC2CCCCC2)c2cccc(C#N)c2)c1.[I-] : 3.9

GET /value?item= C[n+]1cccc2c1c1ccc(Cl)cc1n2CCCCCC1CCCCC1.[I-] &field=IC50 returns 1.2

According to the records, this molecule C[n+]1cccc2c1c1cc(C(F)(F)F)ccc1n2CCCCCC1CCCCC1.[I-] displays IC50 of 1.2

Documented IC50 of Cc1ccc2c(c1)c1c(ccc[n+]1C)n2CCCCCC1CCCCC1.[I-] : 1.6

Sure, the documented IC50 for COc1ccc(N(CCCCCC2CCCCC2)c2ccc[n+](C)c2)cc1.[I-] is 1.9

###

Each entry below lists one item and its recorded MIC value.
- Test system: Aspergillus fumigatus
- assay summary: Antifungal activity against Aspergillus fumigatus ATCC 204305 by NCCLS method
- Assay type: functional, organism-based
Quick reminder: number only, in µg/mL, skip the unit.

Below, each entry is followed by its recorded MIC result.
line notation	numeric value
C[n+]1cccc2c1c1cc(F)ccc1n2CCCCCC1CCCCC1.[I-]	20
C[C@@H]1[C@H](O)[C@@H](C)/C=C/C=C/C=C/C=C/C=C/C=C/C=C/[C@H](O[C@@H]2O[C@H](C)[C@@H](O)[C@H](N)[C@@H]2O)C[C@@H]2O[C@](O)(C[C@@H](O)C[C@@H](O)[C@H](O)CC[C@@H](O)C[C@@H](O)CC(=O)O[C@H]1C)C[C@H](O)[C@H]2C(=O)O	1.3
Cc1ccc(N(CCCCCC2CCCCC2)c2ccc[n+](C)c2)cc1.[I-]	5
Cc1ccc2c(c1)c1c(ccc[n+]1C)n2CCCCCC1CCCCC1.[I-]	20

// sample CSc1ccc2c(c1)c1c(ccc[n+]1C)n2CCCCCC1CCCCC1.[I-] , its MIC was 20

###

Reported MFC values for the following molecules.
- System: Cryptococcus neoformans
- assay summary: Antifungal activity against Cryptococcus neoformans ATCC 90113 by NCCLS method
- Type: functional, organism-based
Quick note: give the figure in µg/mL, leave out the unit.

line notation	measured property	numeric value
C[n+]1cccc2c1c1cc(C(F)(F)F)ccc1n2CCCCCC1CCCCC1.[I-]	MFC	1.3
C[n+]1cccc2c1c1cc(Cl)ccc1n2CCCCCC1CCCCC1.[I-]	MFC	0.6

Switching to the query record.
Just so you know, measured MFC for C[n+]1cccc2c1c1ccc(Cl)cc1n2CCCCCC1CCCCC1.[I-] came out at 0.6

###

- Test system: Mycobacterium intracellulare
- assay summary: Antibacterial activity against Mycobacterium intracellular ATCC 23068 by alamar blue method
- Assay type: functional, organism-based
measured property: MBC (µg/mL)
Numbers only; they are read as µg/mL.

Example compounds with recorded MBC:
line notation	uom	MBC
CSc1ccc(N(CCCCCC2CCCCC2)c2ccc[n+](C)c2)cc1.[I-]	µg/mL	5
C[n+]1cccc(N(CCCCCC2CCCCC2)c2ccc(C(F)(F)F)cc2)c1.[I-]	µg/mL	1.3
COc1cccc(N(CCCCCC2CCCCC2)c2ccc[n+](C)c2)c1.[I-]	µg/mL	10

Entry Cc1ccc2c(c1)c1c(ccc[n+]1C)n2CCCCCC1CCCCC1.[I-] ; MBC = 5

// sample Cc1ccccc1N(CCCCCC1CCCCC1)c1ccc[n+](C)c1.[I-] , its MBC was 2.5

Field MBC (entry C[n+]1cccc(N(CCCCCC2CCCCC2)c2cccc(C(F)(F)F)c2)c1.[I-] ) reads 2.5

# compound C[n+]1cccc(N(CCCCCC2CCCCC2)c2ccccc2C#N)c1.[I-] ; its MBC = 20

MBC for C[n+]1cccc(N(CCCCCC2CCCCC2)c2cccc(Cl)c2)c1.[I-] is 5

Record C[n+]1cccc2c1c1cc(C(F)(F)F)ccc1n2CCCCCC1CCCCC1.[I-] , field MBC: 2.5

// sample C[n+]1cccc2c1c1cc(C#N)ccc1n2CCCCCC1CCCCC1.[I-] , its MBC was 5

###

This section presents molecules with their documented MIC values.
- Test system: Aspergillus fumigatus
- assay summary: Antifungal activity against Aspergillus fumigatus ATCC 204305 by NCCLS method
- Type: functional, organism-based

A selection of reference data follows.
line notation	MIC
COc1ccc2c(c1)c1c(ccc[n+]1C)n2CCCCCC1CCCCC1.[I-]	> 20 µg/mL
C[n+]1cccc2c1c1ccccc1n2CCCCCC1CCCCC1.[I-]	0.63 µg/mL
C[n+]1cccc2c1c1cc(Cl)ccc1n2CCCCCC1CCCCC1.[I-]	20 µg/mL
C[n+]1cccc(N(CCCCCC2CCCCC2)c2ccc(C(F)(F)F)cc2)c1.[I-]	2.5 µg/mL
C[n+]1cccc(N(CCCCCC2CCCCC2)c2ccccc2Cl)c1.[I-]	> 20 µg/mL

Looking up C[n+]1cccc(N(CCCCCC2CCCCC2)c2cccc(Cl)c2)c1.[I-] , I see its MIC listed as 20 µg/mL

// field: MIC; key: C[n+]1cccc2c1c1cccc(Cl)c1n2CCCCCC1CCCCC1.[I-] ; value = 20 µg/mL

Briefly, MIC measured for CSc1ccc(N(CCCCCC2CCCCC2)c2ccc[n+](C)c2)cc1.[I-] : 10 µg/mL

The molecule C[n+]1cccc2c1c1ccc(Cl)cc1n2CCCCCC1CCCCC1.[I-] showed MIC equal to 20 µg/mL

Recorded result, C[n+]1cccc(N(CCCCCC2CCCCC2)c2ccc(Cl)cc2)c1.[I-] , MIC: 1.6 µg/mL

###

Recorded IC50 for the following compounds
- Test system: Candida albicans
- assay summary: Antifungal activity against Candida albicans ATCC 90028 by NCCLS method
- Assay type: functional, organism-based
Hi, when you answer, please include the unit after the number. Thanks!

line notation	IC50
Cc1ccc2c(c1)c1c(ccc[n+]1C)n2CCCCCC1CCCCC1.[I-]	2.9 µg/mL

Just so you know, measured IC50 for C[n+]1cccc2c1c1ccc(Cl)cc1n2CCCCCC1CCCCC1.[I-] came out at 2.9 µg/mL

Looking up C[n+]1cccc2c1c1cc(F)ccc1n2CCCCCC1CCCCC1.[I-] , I see its IC50 listed as 6.5 µg/mL

###

Listing of entries alongside the reported MFC.
- Tested on: Aspergillus fumigatus
- assay summary: Antifungal activity against Aspergillus fumigatus ATCC 204305 by NCCLS method
- Type: functional, organism-based

compound	MFC
CSc1ccc(N(CCCCCC2CCCCC2)c2ccc[n+](C)c2)cc1.[I-]	10 µg/mL
C[C@@H]1[C@H](O)[C@@H](C)/C=C/C=C/C=C/C=C/C=C/C=C/C=C/[C@H](O[C@@H]2O[C@H](C)[C@@H](O)[C@H](N)[C@@H]2O)C[C@@H]2O[C@](O)(C[C@@H](O)C[C@@H](O)[C@H](O)CC[C@@H](O)C[C@@H](O)CC(=O)O[C@H]1C)C[C@H](O)[C@H]2C(=O)O [AMPHOTERICIN B]	5 µg/mL
COc1ccc2c(c1)c1c(ccc[n+]1C)n2CCCCCC1CCCCC1.[I-]	> 20 µg/mL

Sample CSc1ccc2c(c1)c1c(ccc[n+]1C)n2CCCCCC1CCCCC1.[I-] ; MFC observed: 20 µg/mL

Entry C[n+]1cccc2c1c1ccccc1n2CCCCCC1CCCCC1.[I-] — recorded MFC = 5 µg/mL

C[n+]1cccc2c1c1cc(F)ccc1n2CCCCCC1CCCCC1.[I-] yielded MFC of > 20 µg/mL

Field MFC (entry C[n+]1cccc(N(CCCCCC2CCCCC2)c2ccc(Cl)cc2)c1.[I-] ) reads > 20 µg/mL

Recorded result, C[n+]1cccc2c1c1cc(C(F)(F)F)ccc1n2CCCCCC1CCCCC1.[I-] , MFC: > 20 µg/mL

For record Cc1ccc(N(CCCCCC2CCCCC2)c2ccc[n+](C)c2)cc1.[I-] the listed MFC is 5 µg/mL
